This section lists viability assay hit rate readings for cell viability counter screens.
measured.quantity: viability assay hit rate (%)

- molecule: "O=C1C(Cl)=C(Cl)C(=O)c2ccccc21"
  measured.quantity: "viability assay hit rate"
  reported: 97.56
- molecule: "Oc1c(Cl)cc(Cl)cc1Sc1cc(Cl)cc(Cl)c1O"
  measured.quantity: "viability assay hit rate"
  reported: 98.78
- molecule: "Cc1cc(C(C)(C)CC(C)(C)C)ccc1OCCOCC[N+](C)(C)Cc1ccccc1.[Cl-] [methylbenzethonium chloride]"
  measured.quantity: "viability assay hit rate"
  reported: 97.56
- molecule: "[H]/N=C(\\N/C(=N/[H])NCCCCCCNC(=N)NC(=N)Nc1ccc(Cl)cc1)Nc1ccc(Cl)cc1"
  measured.quantity: "viability assay hit rate"
  reported: 97.56
- molecule: "CC1=CC(=O)c2ccccc2C1=O"
  measured.quantity: "viability assay hit rate"
  reported: 97.56
- molecule: "Oc1c(Cl)cc(Cl)c(Cl)c1Cc1c(O)c(Cl)cc(Cl)c1Cl"
  measured.quantity: "viability assay hit rate"
  reported: 97.56
- molecule: "Oc1cc(Cl)ccc1Oc1ccc(Cl)cc1Cl"
  measured.quantity: "viability assay hit rate"
  reported: 97.56
